systemTested: T1, RBFOX1 RRM RbFoxmut (Fox-RRM*) (Homo sapiens, UniProt Q9NWB1 109-208, R118D;E147R;N151S;E152T)
T1 sequence: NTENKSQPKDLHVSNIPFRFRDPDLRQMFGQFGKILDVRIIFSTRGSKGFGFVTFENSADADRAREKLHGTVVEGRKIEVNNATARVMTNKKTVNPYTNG
assayOverview: EMSA; HiTS-Eq, 1 nM pool, 10 min; buffer printed only for the single-RNA assays: 10 mM Tris pH 7.5, 150 mM NaCl, 3.4 mM EDTA, 0.001% NP-40, 30 C
measurementParameters: tags: His6 N-terminal (pET28a); label: 5' 32P
The full ranking holds about 16,000 sequences; the median of “ka relative to ugcaugu” is about 0.096, and the highest 2% start at about 0.35. This is one part of a sample in which the highest values are shown more often than they occur.
# binding signal per entry
measuredProperty: binding signal

>>> experimentalresult("CGGCAAU (DNA:RNA) RNA: GGGAGACCGGAAUUCAGAUUGUCCCGGCAAUUUAAAUCCCGUCGUAGCCACCA DNA 1: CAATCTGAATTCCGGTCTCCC DNA 2: TGGTGGCTACGACGGGATT")
"0.053 KA relative to UGCAUGU"
>>> experimentalresult("UGCUAAU (DNA:RNA) RNA: GGGAGACCGGAAUUCAGAUUGUCCUGCUAAUUUAAAUCCCGUCGUAGCCACCA DNA 1: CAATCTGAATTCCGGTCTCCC DNA 2: TGGTGGCTACGACGGGATT")
"0.0977 KA relative to UGCAUGU"
>>> experimentalresult("CAUAAUU (DNA:RNA) RNA: GGGAGACCGGAAUUCAGAUUGUCCCAUAAUUUUAAAUCCCGUCGUAGCCACCA DNA 1: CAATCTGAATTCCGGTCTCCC DNA 2: TGGTGGCTACGACGGGATT")
"0.0899 KA relative to UGCAUGU"
>>> experimentalresult("GAAAUGC (DNA:RNA) RNA: GGGAGACCGGAAUUCAGAUUGUCCGAAAUGCUUAAAUCCCGUCGUAGCCACCA DNA 1: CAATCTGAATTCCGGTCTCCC DNA 2: TGGTGGCTACGACGGGATT")
"0.072 KA relative to UGCAUGU"
>>> experimentalresult("GGACGCA (DNA:RNA) RNA: GGGAGACCGGAAUUCAGAUUGUCCGGACGCAUUAAAUCCCGUCGUAGCCACCA DNA 1: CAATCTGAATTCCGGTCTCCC DNA 2: TGGTGGCTACGACGGGATT")
"0.12 KA relative to UGCAUGU"
>>> experimentalresult("GAAUUGC (DNA:RNA) RNA: GGGAGACCGGAAUUCAGAUUGUCCGAAUUGCUUAAAUCCCGUCGUAGCCACCA DNA 1: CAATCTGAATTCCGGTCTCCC DNA 2: TGGTGGCTACGACGGGATT")
"0.119 KA relative to UGCAUGU"
>>> experimentalresult("GAUGCUU (DNA:RNA) RNA: GGGAGACCGGAAUUCAGAUUGUCCGAUGCUUUUAAAUCCCGUCGUAGCCACCA DNA 1: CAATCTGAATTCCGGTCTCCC DNA 2: TGGTGGCTACGACGGGATT")
"0.0831 KA relative to UGCAUGU"
>>> experimentalresult("GAAUGCU (DNA:RNA) RNA: GGGAGACCGGAAUUCAGAUUGUCCGAAUGCUUUAAAUCCCGUCGUAGCCACCA DNA 1: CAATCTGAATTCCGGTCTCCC DNA 2: TGGTGGCTACGACGGGATT")
"0.634 KA relative to UGCAUGU"
>>> experimentalresult("GCAAUGC (DNA:RNA) RNA: GGGAGACCGGAAUUCAGAUUGUCCGCAAUGCUUAAAUCCCGUCGUAGCCACCA DNA 1: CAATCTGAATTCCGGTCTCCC DNA 2: TGGTGGCTACGACGGGATT")
"0.0545 KA relative to UGCAUGU"

The measurements presented in this section are drawn from paper PMC9911399.
